Dear all, this message contains IC50 results, target or system Protease (Human immunodeficiency virus 1, UniProt Q9YQ12).

Consider the reported IC50 for these compounds:
>  <smiles.text>
COc1ccc(S(=O)(=O)N(CC(C)C)C[C@@H](O)[C@H](Cc2ccccc2)NC(=O)CN(CC(N)=O)[C@H]2CCOC2)cc1OC

>  <target.or.test.system>
Protease (Human immunodeficiency virus 1, UniProt Q9YQ12)
Sequence (Q9YQ12 whole entry): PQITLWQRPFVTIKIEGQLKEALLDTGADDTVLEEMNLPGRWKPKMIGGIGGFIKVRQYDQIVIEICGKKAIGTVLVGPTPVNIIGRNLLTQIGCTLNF

>  <IC50>
9.9 nM

$$$$
>  <smiles.text>
CC(C)CN(C[C@@H](O)[C@H](Cc1ccccc1)NC(=O)CN(CC(=O)N1CCOCC1)[C@H]1CCOC1)S(=O)(=O)c1ccc2c(c1)OCO2

>  <target.or.test.system>
Protease (Human immunodeficiency virus 1, UniProt Q9YQ12)

>  <IC50>
27.2 nM

$$$$
>  <smiles.text>
COc1ccc(S(=O)(=O)N(CC(C)C)C[C@@H](O)[C@H](Cc2ccccc2)NC(=O)CN(CC(=O)N(C)C)[C@H]2CCOC2)cc1OC

>  <target.or.test.system>
Protease (Human immunodeficiency virus 1, UniProt Q9YQ12)

>  <IC50>
> 1000 nM

$$$$

Form: Entry = `CC(C)CN(C[C@@H](O)[C@H](Cc1ccccc1)NC(=O)CN[C@@H]1CCOC1)S(=O)(=O)c1ccc(N)cc1` | System = Protease (Human immunodeficiency virus 1, UniProt Q9YQ12) | IC50 = ____
141 nM

====

Reported IC50 for target or system Protease (Human immunodeficiency virus 1, UniProt Q9YQ12), by entry.

>  <smiles.text>
CC(C)CN(C[C@@H](O)[C@H](Cc1ccccc1)NC(=O)CN([C@H]1CCOC1)S(C)(=O)=O)S(=O)(=O)c1ccc(OC(F)(F)F)cc1

>  <IC50>
> 1000 nM

$$$$
>  <smiles.text>
COc1ccc(S(=O)(=O)N(CC(C)C)C[C@@H](O)[C@H](Cc2ccccc2)NC(=O)CN(CC(=O)N2CCOCC2)[C@H]2CCOC2)cc1OC

>  <IC50>
> 1000 nM

$$$$
>  <smiles.text>
COc1ccc(S(=O)(=O)N(CC(C)C)C[C@@H](O)[C@H](Cc2ccccc2)NC(=O)CN[C@@H]2CCOC2)cc1

>  <IC50>
16 nM

$$$$
>  <smiles.text>
COCCN(CC(=O)N[C@@H](Cc1ccccc1)[C@H](O)CN(CC(C)C)S(=O)(=O)c1ccc(N)cc1)[C@H]1CCOC1

>  <IC50>
0.88 nM

$$$$

Under Protease (Human immunodeficiency virus 1, UniProt Q9YQ12): IC50 value of `COCCN(CC(=O)N[C@@H](Cc1ccccc1)[C@H](O)CN(CC(C)C)S(=O)(=O)c1ccc(CO)cc1)[C@H]1CCOC1` ?
4.26 nM

// lookup IC50 | system=Protease (Human immunodeficiency virus 1, UniProt Q9YQ12) | key= `CC(C)CN(C[C@@H](O)[C@H](Cc1ccccc1)NC(=O)CN([C@H]1CCOC1)S(C)(=O)=O)S(=O)(=O)c1ccc(N)cc1`
59.8 nM

Notebook entry, Protease (Human immunodeficiency virus 1, UniProt Q9YQ12) assay: IC50 of `CC(C)CN(C[C@@H](O)[C@H](Cc1ccccc1)NC(=O)CN(CC(N)=O)[C@H]1CCOC1)S(=O)(=O)c1ccc(CO)cc1` = ?
19.3 nM

Value wanted: IC50 (Protease (Human immunodeficiency virus 1, UniProt Q9YQ12)) of entry `CC(C)CN(C[C@@H](O)[C@H](Cc1ccccc1)NC(=O)CN([C@H]1CCOC1)S(C)(=O)=O)S(=O)(=O)c1ccc(CO)cc1`
22.7 nM

Identify the measured IC50 of `COCCN(CC(=O)N[C@@H](Cc1ccccc1)[C@H](O)CN(CC(C)C)S(=O)(=O)c1ccc(N)cc1)[C@@H]1CCOC1` for Protease (Human immunodeficiency virus 1, UniProt Q9YQ12).
22.8 nM

====

Target: Protease (Human immunodeficiency virus 1)
parameter: log10 of IC50 (log10 of the value in nM)
Hello, just confirming the data are log10 of IC50 with units of nM.

// worked examples, log10 of IC50 included
>  <smiles.text>
COCCN(CC(=O)N[C@@H](Cc1ccccc1)[C@H](O)CN(CC(C)C)S(=O)(=O)c1ccc(OC)c(OC)c1)[C@H]1CCOC1

>  <log10 of IC50>
2.28

$$$$
>  <smiles.text>
COCCN(CC(=O)N[C@@H](Cc1ccccc1)[C@H](O)CN(CC(C)C)S(=O)(=O)c1ccc(OC)cc1)[C@H]1CCOC1

>  <log10 of IC50>
-0.46

$$$$
>  <smiles.text>
CC(C)CN(C[C@@H](O)[C@H](Cc1ccccc1)NC(=O)CN(CC(=O)N1CCOCC1)[C@H]1CCOC1)S(=O)(=O)c1ccc([N+](=O)[O-])cc1

>  <log10 of IC50>
1.99

$$$$

Item `CC(C)CN(C[C@@H](O)[C@H](Cc1ccccc1)NC(=O)CN(CC(=O)N1CCOCC1)[C@H]1CCOC1)S(=O)(=O)c1ccc(OC(F)(F)F)cc1` with Protease (Human immunodeficiency virus 1) - log10 of IC50?
2.96

Please state recorded log10 of IC50 (tested on Protease (Human immunodeficiency virus 1)) of `CC(C)CN(C[C@@H](O)[C@H](Cc1ccccc1)NC(=O)CN([C@H]1CCOC1)S(C)(=O)=O)S(=O)(=O)c1ccc2c(c1)OCO2`
1.36

Can you look up log10 of IC50 on Protease (Human immunodeficiency virus 1) for `CC(C)CN(C[C@@H](O)[C@H](Cc1ccccc1)NC(=O)CN[C@H]1CCOC1)S(=O)(=O)c1ccc2c(c1)OCO2` ?
0.22

Please state recorded log10 of IC50 (tested on Protease (Human immunodeficiency virus 1)) of `COc1ccc(S(=O)(=O)N(CC(C)C)C[C@@H](O)[C@H](Cc2ccccc2)NC(=O)CN([C@H]2CCOC2)S(C)(=O)=O)cc1`
1.10

Data origin: ChEMBL document CHEMBL4118061
